FYI, the data here is from patent US20170210813A1.

molecular target: T1, human PDGFRb.hFc (human); experiment: SPR, mAb captured, 25 C
T1 construct: Soluble dimeric construct with human Fc; also called hPDGFRb.hFc
quantity: kon (M⁻¹ s⁻¹)
Write it as a number; the unit M⁻¹ s⁻¹ goes unstated.

Query :: Please look up its kon: H4H3102S (antibody, human IgG4, V domains shown, human IgG4 Fc (H4H prefix)) VH: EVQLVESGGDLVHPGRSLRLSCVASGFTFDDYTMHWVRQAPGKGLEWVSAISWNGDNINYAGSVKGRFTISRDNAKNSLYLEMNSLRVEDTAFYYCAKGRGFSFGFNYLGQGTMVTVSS VL: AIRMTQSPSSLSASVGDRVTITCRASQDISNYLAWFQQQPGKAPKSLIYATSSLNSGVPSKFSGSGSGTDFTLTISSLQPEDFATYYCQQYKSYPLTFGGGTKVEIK
Result :: 300000
